Known max response of a selection of compounds
assay: Cycloheximide Counterscreen for Small Molecule Inhibitors of Shiga Toxin; conditions: cell reporter, cycloheximide protein synthesis inhibition counterscreen; active compounds read high; also: read at 38.3 µM for the half of the compounds with a filed dose; 0% is about no effect
About 37,000 (12%) of roughly 300,000 compounds were called active. What follows is part of a selection rich in actives, with near analogues and random picks from the rest.
assay endpoint: max response (%)

- Cc1ccc(C)c(N2CCN(C(=O)CCCn3c(=O)c4cccn4c4cccnc43)CC2)c1: -1.51
- Cc1cnc(C(=O)OCc2c(C)cc(C(C)(C)C)cc2C)cn1: -3.25
- CC(C)c1nc(SCC(=O)Nc2cccc(C(=O)O)c2)c2c3c(sc2n1)CCCC3: 2.36
- CCc1ccc(S(=O)(=O)N/N=C\c2ccc([N+](=O)[O-])o2)cc1: 5.73
- O=C(NCc1cccc(Cl)c1)C1CCN(c2nnc(N3CCCC3=O)s2)CC1: -2.64
- O=C(NCCc1ccc(Cl)cc1)c1cccc(N2CCCC2=O)c1: 21.3
- COc1ccc(-c2ccc(OC)c(C3C4C=CCC(C)C4C(=O)N3Cc3ccccc3)c2)cc1C (stereo not given): 28.8
- Cc1ccc(NC(=O)c2oc(=O)c3ccccc3c2-c2ccccc2)c(C)c1: -5.99
- Cc1ccc(NC(=O)C2CCCN2S(=O)(=O)c2cccc3cccnc23)c(C)c1 (stereo not given): -1.86
- C/C(=N\NC(=O)c1ccoc1C)c1ccccc1O: 18.7
- CCNc1nc(Oc2ccc(C(=O)OC)cc2)nc(N2CCOCC2)n1: -3.34
- Cc1cc(Oc2ccccc2)nc(N2CCOCC2)n1: 11.6
- Cc1ccc(S(=O)(=O)N(C)CC(=O)NCCc2c[nH]c3ccccc23)cc1: 0.209
- CCc1ccccc1NC(=O)c1ccc2snnc2c1: -0.462
- CC(C)[C@H](NC(=O)N1CCn2c1nc1ccccc12)C(=O)NCc1ccc2c(c1)OCO2: 7.58
- CC1CC(C)CN(c2ccc(S(=O)(=O)N3CCOCC3)cc2)C1 (stereo not given): 7.13
- CCCNC(=O)NCc1ccc(N2CCCC2=O)cc1: -2.06
- CC1CCC(NC(=O)c2ccc(N3CCCC3=O)cc2)CC1 (stereo not given): 40.8
- C/C(=N\NC(=O)c1cccc(N2CCCC2=O)c1)c1ccc(N)cc1: 27
- O=C(COc1cc2oc(=O)c3c(c2cc1Cl)CCC3)NCCCN1CCOCC1: 6.01
- Cc1cc(C)c2nc(SCCC#N)nc(C)c2c1: 1.85
- CC1CCCC(NC(=O)CN2CCN(Cc3ccc(Cl)cc3)C2=O)C1C (stereo not given): -4.51
- O=C(Nc1ccc2ccccc2c1)Nc1ccc2snnc2c1: 14.6
- O=C(Nc1cccc(Br)c1)c1ccc2snnc2c1: 26.9
- CSCc1nnc(NC(=O)c2ccc(S(=O)(=O)N3CCCCC3C)cc2)o1 (stereo not given): -2.84
- CN1C(=O)C2(OCCCO2)c2cc(Cl)ccc21: 0.948
- CN(C)CCOCCOc1ccc(Cl)c2ccccc12: -1.16
- COC(=O)c1ccc(Oc2nc(NC(C)C)nc(SC)n2)cc1: 9.19
- CCOc1ccc(Br)cc1S(=O)(=O)Nc1ccc(C(=O)OC(C)C(=O)N(C)c2ccccc2)cc1 (stereo not given): 0.522
- CC(C)=C(NC(=O)c1ccccc1)C(=O)N/N=C(\C)c1ccccc1O: 1.01
- COc1cccc(-c2coc3cc4oc(=O)c(CC(=O)O)c(C)c4cc23)c1: 7.42
- CC(NC(=O)CNC(=O)Cc1cccc2ccccc12)c1ccc(S(N)(=O)=O)cc1 (stereo not given): 4.99
- CCOc1ccc(S(=O)(=O)N2CCN=C2Cc2ccccc2)cc1C: -7.25
- Cc1nonc1NC(=O)c1ccccc1Br: 6.09
- CC(C)CCNC(=O)Cn1c(=O)oc2cc(S(=O)(=O)N3CC(C)CC(C)C3)ccc21 (stereo not given): -7.3

###

experiment: Cycloheximide Counterscreen for Small Molecule Inhibitors of Shiga Toxin; details: cell reporter, cycloheximide protein synthesis inhibition counterscreen; active compounds read high; also: read at 38.3 µM for the half of the compounds with a filed dose; 0% is about no effect
The campaign covered roughly 300,000 compounds. About 37,000 (12%) were called active. The list comes from a sample in which actives are over-represented; it also holds close analogues and randomly drawn compounds.
assay endpoint: max response (%)

* O=C(CSc1nc2nccnc2c(=O)n1Cc1cccs1)Nc1ccccc1F | 18.8
* O=C(Cc1ccc(-c2ccccc2)cc1)NC(c1ccccc1)c1ccccc1 | 1.24
* O=C(Nc1cc(C(=O)Nc2ccc(S(=O)(=O)O)cc2)cc(C(=O)Nc2ccc(S(=O)(=O)O)cc2)c1)Nc1cc(C(=O)Nc2ccc(S(=O)(=O)O)cc2)cc(C(=O)Nc2ccc(S(=O)(=O)O)cc2)c1 | -6.6
* O=C(Nc1c2c(nc3ccccc13)CCCC2)c1ccccc1Br | -2.17
* C=C1CCN(Cc2ccc(OC)cc2)S(=O)(=O)c2ccccc21 | 12.8
* CN(C(=O)C1CCN(c2ncnc3c2nc2n3CCCCC2)CC1)C1CCCCC1 | -1.8
* O=C(OCc1nnc(-c2ccccc2)o1)c1ccc2c(c1)C(=O)N(CCc1ccccc1)C2=O | -1.64
* Cc1ccc(NC(=O)c2nc[nH]c2C(=O)N[C@@H](CCCCNC(=O)OC(C)(C)C)C(=O)OC(C)(C)C)cc1 | -3.36
* CCN(CC)P(=O)(Nc1ccc(SC(F)F)cc1)c1ccc(N(C)C)cc1NC(=O)c1ccco1 (stereo not given) | 11.5
* COc1ccc(/C=N/OCc2ccccc2C#N)c(OC)c1 | 38

###

assay: Cycloheximide Counterscreen for Small Molecule Inhibitors of Shiga Toxin; details: cell reporter, cycloheximide protein synthesis inhibition counterscreen; active compounds read high; also: read at 38.3 µM for the half of the compounds with a filed dose; 0% is about no effect
The whole screen tested about 300,000 compounds, of which about 37,000 (12%) were called active. What follows is part of a selection rich in actives, with near analogues and random picks from the rest.
Known max response of a selection of molecules
assay endpoint: max response (%)

- C=CCNC(=O)c1ccc(C)c(Br)c1: 5.91
- Cc1cccc(NC(=O)/C=C/c2ccc3c(c2)OCO3)n1: 64.4
- CCc1ccc(NC(=O)NC(C)c2ccc3c(c2)OCO3)cc1 (stereo unspecified): 0.596
- O=C(Nc1ccc(S(=O)(=O)N2CCCCC2)cc1)c1cnccn1: -3.02
- CCc1c(C)sc(NC(=O)/C=C/c2ccc3c(c2)OCO3)c1C(=O)OC: 16.3
- O=C(/C=C/c1ccc2c(c1)OCO2)NCc1ccc(F)cc1: 9.99
- CC(C)Cn1cnc2c1c(=O)n(CC(=O)NN)c(=O)n2Cc1ccccc1: 0.845
- N#Cc1c(-c2ccc(F)cc2)cc(C2CC2)nc1SCC(=O)c1cccs1: -0.655
- COc1ccc(N(C)C(=O)C2CCN(S(=O)(=O)c3cccc4nsnc34)CC2)cc1: -1.67
- Cc1ccc(CS(=O)(=O)CCC(=O)NCc2ccc(F)cc2)cc1: -2.44
- CC1CCCCN1C(=O)Cn1c(=O)oc2cc(S(=O)(=O)N3CCCCC3)ccc21 (stereo unspecified): -1.34
- C=CCN1C(=O)C2(OCCCO2)c2cccc(Cl)c21: 1.84
- Cc1cccc(NC(=O)Nc2ccc3c(c2)OCO3)n1: 45.7
- CC(NC(=S)Nc1ccc(S(N)(=O)=O)cc1)c1ccc2c(c1)OCO2 (stereo unspecified): -3.68
- Cc1nc(SCC(=O)Nc2cc(C)on2)c2c(C)c(C)sc2n1: -2.36
- CCCCn1c(O)c(C(CC)=NCc2ccco2)c(=O)[nH]c1=O: -4.03

###

test: Cycloheximide Counterscreen for Small Molecule Inhibitors of Shiga Toxin; settings: cell reporter, cycloheximide protein synthesis inhibition counterscreen; also: read at 38.3 µM for the half of the compounds with a filed dose; 0% is about no effect
About 37,000 (12%) of roughly 300,000 compounds were called active. Cut-off read from the data, not from the text of the source: active = max response mostly above about 13% (no sharp cut-off); inactive = mostly below about 14%. The sample holds actives, similar compounds and a random draw of the others, so the mix is not that of the screen.
Classes used: active, inactive

• O=C(COc1ccc2c(C(F)(F)F)cc(=O)oc2c1)Nc1ccc2c(c1)OCCO2 = inactive
• Cc1nc2c(c(=O)n1Cc1ccco1)c1nc3ccccc3nc1n2Cc1ccccc1 = inactive
• COc1ccc(CCN(C)C(=O)C23CC4CC(CC(Cl)(C4)C2)C3)cc1OC = inactive
• O=C(c1c(F)cccc1F)N1CCN(S(=O)(=O)c2ccc3c(c2)OCCO3)CC1 = inactive
• N#Cc1c(NC(=O)c2ccc(N3CCOCC3)c([N+](=O)[O-])c2)sc2c1CCCC2 = inactive
• CCS(=O)(=O)c1cc([N+](=O)[O-])c(Sc2ccccc2N)s1 = active
• Cn1c(SCC(=O)NC2CCCCC2)nnc1-c1cc2ccccc2o1 = inactive
• COc1ccc2nc(Nc3nc(-c4ccncc4)cs3)sc2c1 = inactive
• CCOC(=O)C(C)n1cnc2c(nnn2-c2ccc(F)cc2)c1=O (stereo not drawn) = active
• CCNc1nc(-c2cc3ccccc3o2)cs1 = active
• COC(=O)CCNc1ccc2c(c1)OCCO2 = active
• COc1cccc(CNC(=O)CN(C)S(=O)(=O)c2ccc3c(c2)c(=O)n(C)c(=O)n3C)c1 = inactive
• Cc1ccccc1CC1(CO)CCCN(Cc2ccc3c(c2)OCCO3)C1 (stereo not drawn) = inactive
• CCOC(=O)CN1C(=O)C(=O)c2cc(C)ccc21 = inactive
• COc1ccc2nc(Nc3nc4ccc(NC(C)=O)cc4s3)sc2c1 = inactive
• CCOC(=O)c1ccc(-c2ccc(C(=O)Nc3cccnc3)o2)cc1 = active
• C#CCNc1ccc(C(=O)OCC)cc1 = active
• CCC(C)c1ccccc1NC(=O)CN(C)CC(=O)Nc1ccccc1SC (stereo not drawn) = inactive
• Cc1ccc(C(=O)OCC(=O)NC(=O)Cc2ccccc2)c(O)c1 = inactive
• COc1ccc2oc(=O)cc(-c3cc4ccccc4o3)c2c1 = inactive
• Cc1ccn(-c2cccc(-n3ccc(C)n3)n2)n1 = active
• CC(=O)Nc1nc(C)c(-c2csc(Nc3ccc(S(N)(=O)=O)cc3)n2)s1 = inactive
• CCN(CC(=O)Nc1ccc2c(c1)OCCO2)Cc1cc(=O)oc2cc(C)c(C)cc12 = active
• O=C(CN1C(=O)S/C(=C\c2ccccc2Cl)C1=O)NC1C=CS(=O)(=O)C1 (stereo not drawn) = inactive
• CCCc1nnc(SCC(=O)Nc2ccc(C(=O)OCC)cc2)o1 = inactive
• CCOc1ccc(S(=O)(=O)Nc2nc3cc(OC)ccc3s2)cc1 = inactive
• Cc1ccccc1N1CCN(C2CCCN(C(=O)c3ocnc3C)C2)CC1 (stereo not drawn) = inactive
• COc1ccc2nc(Nc3nc(-c4cc5ccccc5oc4=O)cs3)sc2c1 = active
• Nc1ccccc1Sc1ccc(C(F)(F)F)cc1[N+](=O)[O-] = inactive
• CC(C)NS(=O)(=O)c1ccc(NC(=O)c2cccnc2)cc1 = inactive
• N#Cc1c(NC(=O)C2CCCO2)sc2c1CCCCC2 (stereo not drawn) = active
• COc1ccc(CCNC(=O)CCn2c(=O)c3ccccc3n(CC(=O)NCC3CCCO3)c2=O)cc1OC (stereo not drawn) = inactive
• COc1cccc(C2CC(c3cccs3)=NN2C(=O)CSC2=NCCS2)c1OC (stereo not drawn) = inactive
• Cc1ccc(SCC(=O)Nc2ccc3c(c2)OCCO3)cc1 = active
• CN(c1ccc(OCC(=O)OCC(=O)Nc2cccc([N+](=O)[O-])c2)cc1)S(=O)(=O)c1ccc(F)cc1 = inactive
• N#Cc1c(NC(=O)C2CC(Cl)=CCC2C(=O)O)sc2c1CCCCC2 (stereo not drawn) = inactive
• Cc1ccc(Cn2c(C)nc3c(c2=O)c2nc4ccccc4nc2n3Cc2ccco2)cc1 = active
• CCOC(=O)c1ccc(NC(=O)CSc2nnc(COc3ccccc3OC)n2C)cc1 = inactive
